Test: Tmax in rat at 4 mg/kg, po and 2 mg/kg, iv
Assay type: ADME, organism-based
Conditions: in vivo
Measured Tmax by item

- smilesRepr: "O=C(O)CCNC(=O)c1ccc(CN(C(=O)Nc2cc(Cl)cc(Cl)c2)c2ccc(C3=CCCCC3)cc2)cc1"
  Tmax: "1 h"
- smilesRepr: "O=C(O)CCNC(=O)c1ccc(CN(C(=O)Nc2ccc(OC(F)(F)F)cc2)c2ccc(C3CCCCC3)cc2)cc1"
  Tmax: "4 h"
- smilesRepr: "CC(C)c1ccc(NC(=O)N(Cc2ccc(C(=O)NCCC(=O)O)cc2)[C@H]2CC[C@H](C(C)(C)C)CC2)cc1"
  Tmax: "0.25 h"
- smilesRepr: "CC(C)(C)[C@H]1CC[C@H](N(Cc2ccc(C(=O)NCCC(=O)O)cc2)C(=O)Nc2ccc(OC(F)(F)F)cc2)CC1"
  Tmax: "1 h"

---

Assay: Cmax in rat at 4 mg/kg, po and 2 mg/kg, iv
Assay type: ADME, organism-based
Settings: in vivo

- smilesRepr: "O=C(O)CCNC(=O)c1ccc(CN(C(=O)Nc2ccc(OC(F)(F)F)cc2)c2ccc(C3CCCCC3)cc2)cc1"
  unitDescriptor: "ng/mL"
  Cmax: 316
- smilesRepr: "O=C(O)CCNC(=O)c1ccc(CN(C(=O)Nc2cc(Cl)cc(Cl)c2)c2ccc(C3=CCCCC3)cc2)cc1"
  unitDescriptor: "ng/mL"
  Cmax: 275
- smilesRepr: "CC(C)(C)[C@H]1CC[C@H](N(Cc2ccc(C(=O)NCCC(=O)O)cc2)C(=O)Nc2ccc(OC(F)(F)F)cc2)CC1"
  unitDescriptor: "ng/mL"
  Cmax: 106
- smilesRepr: "CC(C)c1ccc(NC(=O)N(Cc2ccc(C(=O)NCCC(=O)O)cc2)[C@H]2CC[C@H](C(C)(C)C)CC2)cc1"
  unitDescriptor: "ng/mL"
  Cmax: 40

---

Test: Metabolic stability in rat at 2 mg/kg, iv
Type: ADME, organism-based
Set-up: dose 2 mg/kg, route intravenous
Settings: in vivo
half-life for assorted compounds

- smilesRepr: "CC(C)(C)[C@H]1CC[C@H](N(Cc2ccc(C(=O)NCCC(=O)O)cc2)C(=O)Nc2ccc(OC(F)(F)F)cc2)CC1"
  unitDescriptor: "min"
  half-life: 90
- smilesRepr: "O=C(O)CCNC(=O)c1ccc(CN(C(=O)Nc2cc(Cl)cc(Cl)c2)c2ccc(C3=CCCCC3)cc2)cc1"
  unitDescriptor: "min"
  half-life: 82
- smilesRepr: "CC(C)c1ccc(NC(=O)N(Cc2ccc(C(=O)NCCC(=O)O)cc2)[C@H]2CC[C@H](C(C)(C)C)CC2)cc1"
  unitDescriptor: "min"
  half-life: 20
- smilesRepr: "O=C(O)CCNC(=O)c1ccc(CN(C(=O)Nc2ccc(OC(F)(F)F)cc2)c2ccc(C3CCCCC3)cc2)cc1"
  unitDescriptor: "min"
  half-life: 64

---

Test: Bioavailability in rat at 4 mg/kg, po
Format: ADME, organism-based
Conditions: in vivo

- smilesRepr: "CC(C)c1ccc(NC(=O)N(Cc2ccc(C(=O)NCCC(=O)O)cc2)[C@H]2CC[C@H](C(C)(C)C)CC2)cc1"
  bioavailability / %: 2
- smilesRepr: "O=C(O)CCNC(=O)c1ccc(CN(C(=O)Nc2cc(Cl)cc(Cl)c2)c2ccc(C3=CCCCC3)cc2)cc1"
  bioavailability / %: 69
- smilesRepr: "CC(C)(C)[C@H]1CC[C@H](N(Cc2ccc(C(=O)NCCC(=O)O)cc2)C(=O)Nc2ccc(OC(F)(F)F)cc2)CC1"
  bioavailability / %: 17
- smilesRepr: "O=C(O)CCNC(=O)c1ccc(CN(C(=O)Nc2ccc(OC(F)(F)F)cc2)c2ccc(C3CCCCC3)cc2)cc1"
  bioavailability / %: 54
